Numbers sourced from paper PMC8441110.

Tested on: MRSA (NCTC 12493)
METHOD SUMMARY: MIC/MBC determination
Type: cell-based, Methicillin-resistant Staphylococcus aureus
RUN CONDITIONS: 10 µl from MIC wells on MHA, 37 °C, 20 h, no colony growth
Where no end group is shown, it is not given here.
MBC values, listed per item
MEASURED METRIC: MBC

>>> result("GVIFNALKGVAK-NH2 [GV12]")
"> 512 µM"
>>> result("GVIFNALK-NH2 [GV8]")
"> 512 µM"
>>> result("TVAAQLLKKAR-NH2 [GV11]")
"> 512 µM"

----------
Tested on: MRSA (BO42 V2E1 A)
METHOD SUMMARY: MIC/MBC determination
Format: cell-based, Methicillin-resistant Staphylococcus aureus
RUN CONDITIONS: 10 µl from MIC wells on MHA, 37 °C, 20 h, no colony growth
Where no end group is shown, it is not given here.
MEASURED METRIC: MBC

>>> result("TVAAQLLKKAR-NH2 [GV11]")
"> 512 µM"
>>> result("GVIFNALKGVAK-NH2 [GV12]")
"> 512 µM"
>>> result("GVIFNALK-NH2 [GV8]")
"> 512 µM"
